assay: chemical genetic growth profiling, strain panel (AID 1159580);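 further: tested at 20 µM; growth read once vehicle control cultures reached saturation at 30 °C; 1 = growth at the plate median or of vehicle wells; lower values mean less growth of the strain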; details: S. cerevisiae deletion strains, growth OD, locus YAL013W, strain DEP1, hits give low values
Out of some 5,500 compounds screened, about 2,000 (36%) were called active. Another 18% or so got no clear call; they are omitted. The list shows a part of the results.
We begin with a simple list: items and their reported normalized growth.

MOLECULE | normalized growth
N#Cc1cc2nc(O)c(O)nc2cc1[N+](=O)[O-] | 0.985
OC1(c2ccc(Cl)cc2)CSc2nc3cc(C(F)(F)F)ccc3n21 (centres undefined) | 1.03
Cc1cc(O)c(C)c2c1C(=O)Oc1c(C)c(O)c(C(=O)O)c(C)c1O2 | 0.997
N#Cc1csc([N+](=O)[O-])c1 | 0.944

====

test: chemical genetic growth profiling, strain panel (AID 1159580);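 further: tested at 20 µM; growth read once vehicle control cultures reached saturation at 30 °C; 1 = growth at the plate median or of vehicle wells; lower values mean less growth of the strain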; conditions: S. cerevisiae deletion strains, growth OD, locus YKR091W, strain srl3, hits give low values
Out of some 5,500 compounds screened, about 2,000 (36%) were called active. Inconclusive results (about 18%) are left out. This is one part of the list.

COMPOUND | normalized growth
COc1cc([C@H]2Oc3cc([C@H]4Oc5cc(O)cc(O)c5C(=O)[C@@H]4O)ccc3O[C@@H]2CO)ccc1O | 1.01
c1ccc2c(c1)CN1CCCC1=N2 | 0.994
NS(=O)(=O)c1cc2c(cc1Cl)NC(C1CC3C=CC1C3)NS2(=O)=O (stereo unspecified) | 0.989
CC1(C)C(O)CC(O)C2(C)C1CC(O)C1(C)C2CCC2(C)C(c3ccoc3)OC(=O)C3OC321 (stereo unspecified) | 0.986
OC[C@H]1OC([S-])[C@H](O)[C@@H](O)[C@@H]1O.[Au+] (stereo partly specified) | 1.01
NC(N)=O | 1
CC(=O)O[C@H]1C[C@@H](OC(C)=O)C(C)(C)C2CC(=O)[C@]3(C)C(CC[C@@]4(C)[C@H](c5ccoc5)OC(=O)[C@H]5O[C@]543)[C@]21C (stereo partly specified) | 0.991
O=C(Nc1ccccc1)Nc1ccccc1 | 0.962
N[C@@H]1[C@@H](O)[C@H](O)[C@@H](CO)O[C@H]1O | 1.02
C=C1[C@H]2CC[C@@]3(C)[C@H](c4ccoc4)OC(=O)C[C@]13O[C@H]1C[C@H](O)C(C)(C)[C@H](CC(=O)OC)[C@]12C | 1.02
CC(=O)Nc1ccccc1 | 0.95

====

assay: chemical genetic growth profiling, strain panel (AID 1159580);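 further: tested at 20 µM; growth read once vehicle control cultures reached saturation at 30 °C; 1 = growth at the plate median or of vehicle wells; lower values mean less growth of the strain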; settings: S. cerevisiae deletion strains, growth OD, locus YER155C, strain BEM2
About 2,000 (36%) of roughly 5,500 compounds were called active. Not shown: some 18% with an inconclusive outcome. No stated cut-off is given here; in the data, active means normalized growth mostly below about 0.91 (no sharp cut-off); inconclusive means no clear call, values can overlap the other calls; inactive means mostly above about 0.92. Some of the results follow.
Outcome codes: label 1 for active, label 0 for inactive

COMPOUND | ANSWER LABEL
COc1cc(C(=O)O)c2c(c1C)OC(=O)c1c(C)cc(O)c(C=O)c1O2 | label 0
CCN(CC)CCOC(=O)C(c1ccccc1)c1ccccc1 | label 0
C[C@@H](N)[C@@H](O)c1ccccc1 | label 0
COc1cc(C)c(C(=O)Oc2cc(C)c(C(=O)O)c(O)c2C)c(OC)c1C | label 0
Cc1cc(O)c(C=O)c2c1C(=O)Oc1c(C)c(O)c3c(c1O2)C(O)OC3=O (centres undefined) | label 0
CC(=O)O[C@H]1CC[C@]2(C)C3C(=O)[C@@H](OC(C)=O)[C@@]4(C)C(C[C@@H]5O[C@]6(CCC(C)CO6)[C@@H](C)[C@@H]54)C3CC[C@H]2C1 (some centres undefined) | label 0
Clc1ccc2c(c1)C(N1CCNCC1)=Nc1ccccc1O2 | label 0
CCOC(=O)[C@H](CCc1ccccc1)N[C@@H](C)C(=O)N1Cc2ccccc2C[C@H]1C(=O)O | label 0
Cc1cc(O)c(C)c2c1C(=O)Oc1c(C)c(O)c(C(=O)O)c(C)c1O2 | label 0
COc1cc([C@@H]2c3cc4c(cc3[C@H](OC(C)=O)[C@H]3COC(=O)[C@@H]23)OCO4)cc(OC)c1OC | label 0
C[C@@H]1O[C@@H](O[C@H]2C[C@@H](O)[C@]3(CO)C4C(CC[C@]3(O)C2)[C@@]2(O)CC[C@H](C3=CC(=O)OC3)[C@@]2(C)C[C@H]4O)[C@H](O)[C@H](O)[C@H]1O (some centres undefined) | label 0
O=c1cc(-c2ccccc2)oc2cc(O)c(O)c(O)c12 | label 1
c1ccc2c(c1)CN1CCCC1=N2 | label 0
C[C@H](N)[C@H](O)c1ccccc1 | label 0
C[C@]12C=CC(=O)C=C1CCC1C3C[C@@H](O)[C@](O)(C(=O)CO)[C@@]3(C)C[C@H](O)[C@@]12F (some centres undefined) | label 0
CC1=C2[C@H]3OC(=O)[C@@H](C)[C@@H]3CC[C@@]2(C)C=CC1=O | label 0
N[C@@H](Cc1cc(I)c(Oc2ccc(O)c(I)c2)c(I)c1)C(=O)O | label 0
CC1CCC2(OC1)OC1CC3C4CCC5C[C@@H](O)CCC5(C)C4=CCC3(C)C1[C@@H]2C (some centres undefined) | label 0
CN1CCN(C2=Nc3ccccc3Oc3ccc(Cl)cc32)CC1 | label 0
